B1: scFv; the commonest letter at each place (parent)
chain 1: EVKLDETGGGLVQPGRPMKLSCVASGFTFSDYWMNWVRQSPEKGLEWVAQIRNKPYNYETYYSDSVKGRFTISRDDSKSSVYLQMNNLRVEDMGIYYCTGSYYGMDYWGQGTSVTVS
chain 2: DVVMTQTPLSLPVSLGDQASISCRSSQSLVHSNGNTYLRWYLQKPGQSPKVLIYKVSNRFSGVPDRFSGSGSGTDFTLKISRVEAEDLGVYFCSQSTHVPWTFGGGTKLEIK

# Variants of: B1
# measurement-protocol: yeast surface expression (ratio to wild type); higher = more expressed
# condition-context: format: scFv 4-4-20, heavy + light
Entries and their measured yeast surface expression follow.
assay-readout: yeast surface expression

{"columns": ["variant-annotation", "assay-readout", "measured-value"],
 "data": [
  ["chain 1 Y102S Y107R", "yeast surface expression", 0.667],
  ["chain 1 W33N W36R", "yeast surface expression", 0.764],
  ["chain 1 F29I", "yeast surface expression", 1.01],
  ["chain 1 T28M M34C", "yeast surface expression", 0.719],
  ["chain 1 S101C Y103V D106I", "yeast surface expression", 0.168],
  ["chain 1 S101Y Y102W M105T", "yeast surface expression", 0.507],
  ["chain 1 W108E", "yeast surface expression", 0.463],
  ["chain 1 F29L S30L", "yeast surface expression", 0.651]
]}

From: the FLAb antibody collection (doi:10.7554/elife.23156)
